Would you mind telling me the reported viability at 48 h, 10 µM of each entry?
Experiment: Cytotoxicity against human TERT immortalized BJ1 cells at 10 uM after 48 hrs by MTT assay relative to control
Format: cell-based, BJ
Answers are plain numbers, in %.

line notation	quantitative result
CCCCNCC(=O)Nc1ccc2c(c1)C(=O)c1cc(NC(=O)CNCCCC)ccc1C2=O	41
O=C(CN1CCCCC1)Nc1ccc2c(c1)C(=O)c1cc(NC(=O)CN3CCCCC3)ccc1C2=O	78
O=C1c2ccc([N+](=O)[O-])cc2C(=O)c2cc([N+](=O)[O-])ccc21	91
O=C(CCN1CCNCC1)Nc1ccc2c(c1)C(=O)c1cc(NC(=O)CCN3CCNCC3)ccc1C2=O	100

Please look at the following molecule next.
Hello, please tell me recorded viability at 48 h, 10 µM for this one: CCN(CC)CC(=O)Nc1ccc2c(c1)C(=O)c1cc(NC(=O)CN(CC)CC)ccc1C2=O
67

###

Assay: Cytotoxicity against human TERT immortalized BJ1 cells at 1 uM after 48 hrs by MTT assay relative to control
Type: cell-based, BJ
parameter: viability at 48 h, 1 µM (%)
Give bare numbers, in %.

In the examples that follow, each entry is paired with its recorded viability at 48 h, 1 µM.
line notation	parameter	unit of measurement	quantitative result
CN1CCN(CC(=O)Nc2ccc3c(c2)C(=O)c2cc(NC(=O)CN4CCN(C)CC4)ccc2C3=O)CC1	viability at 48 h, 1 µM	%	86
O=C(CCN1CCCC1)Nc1ccc2c(c1)C(=O)c1cc(NC(=O)CCN3CCCC3)ccc1C2=O	viability at 48 h, 1 µM	%	82
O=C(CCCCl)Nc1ccc2c(c1)C(=O)c1cc(NC(=O)CCCCl)ccc1C2=O	viability at 48 h, 1 µM	%	72
O=C(Cc1ccccc1)Nc1ccc2c(c1)C(=O)c1cc(NC(=O)Cc3ccccc3)ccc1C2=O	viability at 48 h, 1 µM	%	93
O=C1c2ccc(NC(=O)C3CCCCC3)cc2C(=O)c2cc(NC(=O)C3CCCCC3)ccc21	viability at 48 h, 1 µM	%	87

Hi team, please reply with viability at 48 h, 1 µM for each item in this list.
1. CCC(=O)Nc1ccc2c(c1)C(=O)c1cc(NC(=O)CC)ccc1C2=O
2. CC(C)NCC(=O)Nc1ccc2c(c1)C(=O)c1cc(NC(=O)CNC(C)C)ccc1C2=O

1: 77; 2: 89

Hi team, please reply with viability at 48 h, 1 µM for each item in this list.
1. CCN(CC)CCC(=O)Nc1ccc2c(c1)C(=O)c1cc(NC(=O)CCN(CC)CC)ccc1C2=O
2. CCCNCCC(=O)Nc1ccc2c(c1)C(=O)c1cc(NC(=O)CCNCCC)ccc1C2=O

103
75

###

Target: Telomerase reverse transcriptase (Homo sapiens, UniProt O14746)
Sequence (O14746 whole entry): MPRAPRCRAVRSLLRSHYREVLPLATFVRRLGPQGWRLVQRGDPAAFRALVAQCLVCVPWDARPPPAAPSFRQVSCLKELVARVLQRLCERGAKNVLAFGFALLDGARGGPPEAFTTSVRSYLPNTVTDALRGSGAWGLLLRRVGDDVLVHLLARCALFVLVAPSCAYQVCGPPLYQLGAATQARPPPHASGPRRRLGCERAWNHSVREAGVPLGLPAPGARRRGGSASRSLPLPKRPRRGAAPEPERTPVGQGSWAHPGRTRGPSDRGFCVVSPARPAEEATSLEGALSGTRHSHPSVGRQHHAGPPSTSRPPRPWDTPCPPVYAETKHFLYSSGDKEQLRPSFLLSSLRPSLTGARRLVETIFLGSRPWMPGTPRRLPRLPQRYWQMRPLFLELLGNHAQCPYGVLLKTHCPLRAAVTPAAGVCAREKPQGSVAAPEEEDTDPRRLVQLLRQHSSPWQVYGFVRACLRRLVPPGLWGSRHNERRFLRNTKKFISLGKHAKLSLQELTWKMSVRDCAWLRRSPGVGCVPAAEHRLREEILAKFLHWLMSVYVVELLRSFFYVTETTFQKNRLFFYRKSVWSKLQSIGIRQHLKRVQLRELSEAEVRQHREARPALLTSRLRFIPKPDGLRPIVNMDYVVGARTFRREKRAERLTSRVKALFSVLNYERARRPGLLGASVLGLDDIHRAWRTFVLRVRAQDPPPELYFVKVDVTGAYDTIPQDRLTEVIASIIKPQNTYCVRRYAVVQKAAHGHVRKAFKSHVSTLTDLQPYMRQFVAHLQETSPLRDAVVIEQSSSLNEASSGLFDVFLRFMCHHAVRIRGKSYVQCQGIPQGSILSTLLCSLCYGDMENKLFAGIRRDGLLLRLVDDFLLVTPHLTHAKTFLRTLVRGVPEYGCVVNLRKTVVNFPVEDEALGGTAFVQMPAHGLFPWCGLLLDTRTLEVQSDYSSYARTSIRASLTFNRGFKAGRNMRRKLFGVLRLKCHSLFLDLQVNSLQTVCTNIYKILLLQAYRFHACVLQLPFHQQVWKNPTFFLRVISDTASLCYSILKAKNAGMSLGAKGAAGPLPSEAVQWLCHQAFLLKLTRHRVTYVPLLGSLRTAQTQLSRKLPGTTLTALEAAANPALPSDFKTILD
Assay: Effect on human TERT expressed in H1299 cells at 10 uM after 24 hrs by SEAP assay relative to control
parameter: residual activity (%)
Give bare numbers, in %.

line notation	residual activity / %
CN1CCN(CCC(=O)Nc2ccc3c(c2)C(=O)c2cc(NC(=O)CCN4CCN(C)CC4)ccc2C3=O)CC1	52
O=C(Cc1ccccc1)Nc1ccc2c(c1)C(=O)c1cc(NC(=O)Cc3ccccc3)ccc1C2=O	91
O=C1c2ccc(NC(=O)C3CCCCC3)cc2C(=O)c2cc(NC(=O)C3CCCCC3)ccc21	93

Hi team, please reply with residual activity for each item in this list.
1. CCCC(=O)Nc1ccc2c(c1)C(=O)c1cc(NC(=O)CCC)ccc1C2=O
2. CC(C)NCC(=O)Nc1ccc2c(c1)C(=O)c1cc(NC(=O)CNC(C)C)ccc1C2=O
3. CC(C)CNCC(=O)Nc1ccc2c(c1)C(=O)c1cc(NC(=O)CNCC(C)C)ccc1C2=O
4. O=C(CN1CCCC1)Nc1ccc2c(c1)C(=O)c1cc(NC(=O)CN3CCCC3)ccc1C2=O
5. O=C(CCN1CCNCC1)Nc1ccc2c(c1)C(=O)c1cc(NC(=O)CCN3CCNCC3)ccc1C2=O
6. O=C1c2ccc(NC(=O)C3CCCC3)cc2C(=O)c2cc(NC(=O)C3CCCC3)ccc21
7. CCNCCC(=O)Nc1ccc2c(c1)C(=O)c1cc(NC(=O)CCNCC)ccc1C2=O

83
28
38
48
71
87
33
